- ASSAY_PROTOCOL: Octanol/water partition coefficient, log P of the compound by HPLC analysis
- Format: physicochemical
Entries and their measured logP follow.
// print number alone

Recorded results for 3 molecules are shown here.
>  <MOLECULE>
O=C(CCCC[C@@H]1CCSS1)O[C@H]1[C@H](O)[C@@H](CO)OC(O)[C@@H]1O (some centres undefined)

>  <logP>
0.31

$$$$
>  <MOLECULE>
O=C(CCCC[C@@H]1CCSS1)OCc1cc(=O)c(O)co1

>  <logP>
2.03

$$$$
>  <MOLECULE>
O=C(CCCC[C@@H]1CCSS1)OC[C@H]1OC(O)[C@H](O)[C@@H](O)[C@@H]1O (some centres undefined)

>  <logP>
0.94

$$$$

Turning to the following molecule.
Report logP for "O=C(CCCC[C@@H]1CCSS1)OCCN1CCOCC1" please.
2.64

---

- ASSAY_PROTOCOL: Half life in mouse plasma at 0.1 to 50 ppm by LC-MS analysis
- Type: ADME, cell-free
- CONDITION_LABEL: dose 0.1-50 ppm
METRIC: half-life (h)
The reply should contain only the number, in h.

Report half-life for O=C(CCCC[C@@H]1CCSS1)O[C@H]1[C@H](O)[C@@H](CO)OC(O)[C@@H]1O (stereo partly specified) please.
1.5

---

- ASSAY_PROTOCOL: Half life in pH 1.5 gastric enzyme-free fluid assessed as parent compound remaining neutralized with 0.1 N triethylamine solution at 20 mins interval for 3 hrs by HPLC analysis
- Format: ADME
Entries and their measured half-life follow.

>  <SMILES_RECORD>
O=C(CCCC[C@@H]1CCSS1)OCCOCCOCCO

>  <half-life>
> 2 h

$$$$
>  <SMILES_RECORD>
Cc1oc(=O)oc1COC(=O)CCCC[C@@H]1CCSS1

>  <half-life>
> 2 h

$$$$
>  <SMILES_RECORD>
O=C(CCCC[C@@H]1CCSS1)OCc1cc(=O)c(O)co1

>  <half-life>
> 2 h

$$$$

Report half-life for "O=C(CCCC[C@@H]1CCSS1)OC(CO)CO" please.
> 2 h

Repeat for the following compound: "CN1CCN(CCOC(=O)CCCC[C@@H]2CCSS2)CC1"
> 2 h

---

- ASSAY_PROTOCOL: Apparent permeability in human Caco-2 cells measured after 15 mins by LC-MS analysis
- Format: ADME, cell-based
METRIC: Papp at 0.25 h
Please state the number and follow it with the unit.

Report Papp at 0.25 h for "Cc1oc(=O)oc1COC(=O)CCCC[C@@H]1CCSS1" please.
15.9 ×10⁻⁶ cm/s

---

Entries and their measured half-life follow.
- ASSAY_PROTOCOL: Half life in pH 6.8 intestinal enzyme-free fluid assessed as parent compound remaining neutralized with 0.1 N triethylamine solution at 20 mins interval for 3 hrs by HPLC analysis
- Format: ADME

Recorded results for 2 compounds are shown here.
>  <SMILES_RECORD>
Cc1oc(=O)oc1COC(=O)CCCC[C@@H]1CCSS1

>  <OBSERVED_RESULT>
> 2 h

$$$$
>  <SMILES_RECORD>
CN1CCN(CCOC(=O)CCCC[C@@H]2CCSS2)CC1

>  <OBSERVED_RESULT>
> 2 h

$$$$

Report half-life for "O=C(CCCC[C@@H]1CCSS1)OCCOCCOCCO" please.
> 2 h

Repeat for the following compound: "O=C(CCCC[C@@H]1CCSS1)OCc1cc(=O)c(O)co1"
> 2 h

Repeat for the following compound: "O=C(CCCC[C@@H]1CCSS1)OC(CO)CO"
> 2 h

---

Entries and their measured solubility follow.
- ASSAY_PROTOCOL: Aqueous solubility of compound
- Type: physicochemical
- CONDITION_LABEL: aqueous medium; read-out: solubility

>  <COMPOUND>
O=C(CCCC[C@@H]1CCSS1)OC[C@H]1OC(O)[C@H](O)[C@@H](O)[C@@H]1O (some centres undefined)

>  <solubility>
< 2000 µM

$$$$
>  <COMPOUND>
O=C(CCCC[C@@H]1CCSS1)OCc1cc(=O)c(O)co1

>  <solubility>
< 10 µM

$$$$
>  <COMPOUND>
O=C(CCCC[C@@H]1CCSS1)OCCN1CCOCC1

>  <solubility>
< 10 µM

$$$$

Turning to the following compound.
Report solubility for O=C(CCCC[C@@H]1CCSS1)O[C@H]1[C@H](O)[C@@H](CO)OC(O)[C@@H]1O (some centres undefined) please.
> 10000 µM
